Tested on: MOLT-4 leukemia
Assay: NCI tumour cell line growth inhibition, 48 h
Task for the reader: assign each of the following compounds its reported TGI.

Asked: Query the reported TGI for MOLT-4 leukemia; item: `CCCCCCCCCCCCCCCCCC(=O)O[C@H](COC(=O)CCCCCCCCCCC)COC(=O)CCCCCCCCCCCCCCC`
Given back: > 100 µM

Asked: Query the reported TGI for MOLT-4 leukemia; item: `CCOC(=O)/C=C(/C(=O)OCC)n1ccc(N)nc1=O`
Given back: > 100 µM

Asked: Query the reported TGI for MOLT-4 leukemia; item: CCCC(C)NC1=C(NC(C)=O)C(=O)c2ccccc2C1=O (stereo not given)
Given back: > 100 µM

Asked: Query the reported TGI for MOLT-4 leukemia; item: `Cc1cc(N/N=C/c2nc(-c3ccc(Br)cc3)oc2C)c2cc(Br)ccc2n1`
Given back: > 100 µM

Asked: Query the reported TGI for MOLT-4 leukemia; item: `COc1ccc(-c2ccc(/C=N/n3c(C)n[nH]c3=S)o2)c([N+](=O)[O-])c1`
Given back: > 100 µM

Asked: Query the reported TGI for MOLT-4 leukemia; item: `C[C@H](N)C(=O)Nc1ccc(-c2nc3ccccc3s2)cc1`
Given back: 31.4 µM

Asked: Query the reported TGI for MOLT-4 leukemia; item: `COc1cccc(/C(COc2ccc3c(c2)oc(=O)c2cc(OC)ccc23)=N/O)c1`
Given back: > 100 µM

Asked: Query the reported TGI for MOLT-4 leukemia; item: `Nn1c(CCCCCCCCc2nnc(COc3ccc(Cl)cc3)n2N)nnc1COc1ccc(Cl)cc1`
Given back: > 100 µM

Asked: Query the reported TGI for MOLT-4 leukemia; item: CC12CCCCC1(C)C2Sc1ccccc1 (stereo not given)
Given back: 41.6 µM

Asked: Query the reported TGI for MOLT-4 leukemia; item: COC(=O)[C@H](Cc1ccccc1)NC(=O)[C@H](Cc1ccccc1)NC(=O)[C@@H]1CCCN1C(=O)N[C@H]1C2C=CC(C2)C1C(=O)N1CCC[C@H]1C(=O)N[C@@H](C)C(=O)N[C@H](C(=O)OC)C(C)C (stereo not given in full)
Given back: 85.6 µM

Asked: Query the reported TGI for MOLT-4 leukemia; item: `CCCCCC(=O)NC(=S)Nc1nn[nH]n1`
Given back: > 100 µM

Asked: Query the reported TGI for MOLT-4 leukemia; item: `N.N.N.N.[Cl-].[Co+3].[N-]=[N+]=[N-].[N-]=[N+]=[N-]`
Given back: > 100 µM

Asked: Query the reported TGI for MOLT-4 leukemia; item: `CN(C)Cc1cc(C(=O)/C=C/c2ccccc2Cl)cc(CN(C)C)c1O`
Given back: 59.8 µM

Asked: Query the reported TGI for MOLT-4 leukemia; item: `CNC(=O)Oc1ccc(-c2cn3cc(OC(=O)NC)ccc3n2)cc1`
Given back: > 100 µM

Asked: Query the reported TGI for MOLT-4 leukemia; item: `O=C(CSC(c1ccccc1)c1ccccc1)N/N=C/c1ccc(Cl)cc1Cl`
Given back: 68.1 µM

Asked: Query the reported TGI for MOLT-4 leukemia; item: `Cc1ccc([C@H]2CC(=O)C[C@H](c3ccc(C)cc3)C23C(=O)c2ccccc2C3=O)cc1`
Given back: > 100 µM

Asked: Query the reported TGI for MOLT-4 leukemia; item: O=c1[nH]c2cc(Cl)ccc2nc1/C(=N\O)C(O)c1ccc(Cl)cc1Cl (stereo not given)
Given back: > 100 µM

Asked: Query the reported TGI for MOLT-4 leukemia; item: COc1ccc(C2c3cc(OC)c(OC)cc3C(Cc3ccc([N+](=O)[O-])cc3)C2c2ccc([N+](=O)[O-])cc2)cc1OC (stereo not given)
Given back: > 100 µM

Asked: Query the reported TGI for MOLT-4 leukemia; item: `CN(C)C(=S)/N=c1\ss/c(=N\C(=S)N(C)C)n1-c1ccc(Cl)c(Cl)c1`
Given back: > 100 µM

Asked: Query the reported TGI for MOLT-4 leukemia; item: C1CCC2C(C1)CCCC2NC1=NCCO1 (stereo not given)
Given back: > 100 µM
